The entries below come with measured IC50 values attached.
# Target desc: NLRP3 (Homo sapiens)
# Construct: Seed THP-1 cells (25,000 cells/well) containing 1.0 μg/ml LPS in 40 μl of RPMI medium
# Sequence (Q96P20 whole entry): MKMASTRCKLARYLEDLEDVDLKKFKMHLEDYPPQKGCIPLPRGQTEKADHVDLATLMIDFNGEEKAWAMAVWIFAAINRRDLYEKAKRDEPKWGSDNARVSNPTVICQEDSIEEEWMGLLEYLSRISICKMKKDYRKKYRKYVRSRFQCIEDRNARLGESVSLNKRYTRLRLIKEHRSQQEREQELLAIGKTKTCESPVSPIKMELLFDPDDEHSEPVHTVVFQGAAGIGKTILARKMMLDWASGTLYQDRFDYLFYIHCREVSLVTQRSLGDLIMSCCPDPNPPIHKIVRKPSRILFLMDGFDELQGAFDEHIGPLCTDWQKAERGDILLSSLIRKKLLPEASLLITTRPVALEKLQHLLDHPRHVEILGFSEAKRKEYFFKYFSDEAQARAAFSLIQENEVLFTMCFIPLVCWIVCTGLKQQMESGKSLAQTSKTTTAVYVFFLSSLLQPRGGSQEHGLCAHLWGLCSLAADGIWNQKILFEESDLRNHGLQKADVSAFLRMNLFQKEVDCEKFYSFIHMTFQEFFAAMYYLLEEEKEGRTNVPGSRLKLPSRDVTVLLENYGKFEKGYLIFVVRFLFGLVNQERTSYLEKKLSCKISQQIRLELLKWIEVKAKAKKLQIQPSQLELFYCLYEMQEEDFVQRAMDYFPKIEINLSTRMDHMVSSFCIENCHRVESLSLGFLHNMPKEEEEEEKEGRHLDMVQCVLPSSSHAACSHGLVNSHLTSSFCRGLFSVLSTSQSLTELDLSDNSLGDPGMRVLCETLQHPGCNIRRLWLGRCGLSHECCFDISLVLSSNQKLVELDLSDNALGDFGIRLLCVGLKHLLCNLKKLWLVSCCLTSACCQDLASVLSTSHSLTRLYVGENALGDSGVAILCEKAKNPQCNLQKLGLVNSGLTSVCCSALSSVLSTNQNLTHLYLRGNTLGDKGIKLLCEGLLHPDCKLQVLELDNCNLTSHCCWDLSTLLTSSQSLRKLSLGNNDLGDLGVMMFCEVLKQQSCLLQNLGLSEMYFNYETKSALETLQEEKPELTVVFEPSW
# Procedure text: THP-1 cells pyroptosis assay
# Run parameters: LPS 1 μg/ml, compound 3 hrs, nigericin 5 μM 1 hr, resazurin readout

Molecule | IC50
CC(C)c1cc(S(=O)(=O)NC(=O)Cc2c(-c3ccncc3)cc(F)cc2C(C)C)c(F)cc1F [Example 201] | ≤ 0.5 µM
COc1cc(-c2cc(F)cc(C(C)C)c2CC(=O)NS(=O)(=O)c2ccc(C(C)(C)C#N)cc2)ccn1 [Example 190] | ≤ 5 µM
COc1cc(-c2cc(F)cc(C(C)C)c2CC(=O)NS(=O)(=O)c2cc(C#N)ccc2C)ccn1 [Example 35] | ≤ 10 µM

Data request, read-out IC50, for COc1cc(-c2cc(F)cc(C(C)C)c2CC(=O)NS(=O)(=O)c2nc(C)cc(C)n2)ccn1 [Example 188]
≤ 10 µM

Taken from patent US12030879B2.
